biological target: acetylcholine receptor; test: SPR, AchR immobilized on chip
Entries annotated with measured Binding affinity (relative to RRQRR) (relative value to the RRQRR sequence)
// return a plain number; no unit text

binder	readout-value
SRRQRR	121
RRQRRE	37
RRQRRI	133

*Q* Binding affinity (relative to RRQRR) (relative value to the RRQRR sequence) for "RRQRRQ" ?
*A* 101

*Q* Sample "RRQRRD" — what was its Binding affinity (relative to RRQRR) (relative value to the RRQRR sequence)?
*A* 65

*Q* May I ask what Binding affinity (relative to RRQRR) (relative value to the RRQRR sequence) has been recorded for "GRRQRR" ?
*A* 132

*Q* Binding affinity (relative to RRQRR) (relative value to the RRQRR sequence) for "RRRQRR" ?
*A* 189

*Q* I have this binder here, "RRQRRY" , and I need its recorded Binding affinity (relative to RRQRR) (relative value to the RRQRR sequence).
*A* 105

*Q* So what does the record say about Binding affinity (relative to RRQRR) (relative value to the RRQRR sequence) for "RRQRRK" ?
*A* 175

The origin of these recorded values is patent US20250011363A1.
